Assay: Pharmacokinetic study in rats, plasma synephrine by LC-MS/MS
Type: in vivo, rat
Settings: plasma, iv; rat, injection group (tail vein); read-out: half-life (t½)
endpoint: half-life
Give me the value, and tack the unit on after it.

Sample CNCC(O)c1ccc(O)cc1 (stereo not drawn) [SYN, Synephrine] — what was its half-life?
5.33 h

====

Assay: Solubility of synephrine API in different solvents by HPLC
Assay type: physicochemical
Conditions: solvent: Water
endpoint: solubility (mg/mL)
Number in mg/mL, nothing else.

Sample CNCC(O)c1ccc(O)cc1 (stereo not drawn) [SYN, Synephrine] — what was its solubility?
13.4

====

Test: Pharmacokinetic study in rats, plasma synephrine by LC-MS/MS
Format: in vivo, rat
Conditions: plasma, po; rat, gavage group; read-out: area-under-the-curve (AUC)(0-t)
Description: SPF-grade male SD rats, weighing 180-220 g, were housed under identical experimental conditions: temperature (22±1)° C., relative humidity (55±5) %, and a 12-hour light/dark cycle. They had free access to food and water and underwent a one-week acclimatization period before the experiment. […]
endpoint: AUC(0-t) (ng·h/mL)
Number in ng·h/mL, nothing else.

Sample CNCC(O)c1ccc(O)cc1 (stereo not drawn) [SYN, Synephrine] — what was its AUC(0-t)?
876
